- measuredTarget: SST2 (Homo sapiens)
- Construct: host or cells: PathHunter CHO-K1 SST2 cells
- Sequence (P30874 whole entry): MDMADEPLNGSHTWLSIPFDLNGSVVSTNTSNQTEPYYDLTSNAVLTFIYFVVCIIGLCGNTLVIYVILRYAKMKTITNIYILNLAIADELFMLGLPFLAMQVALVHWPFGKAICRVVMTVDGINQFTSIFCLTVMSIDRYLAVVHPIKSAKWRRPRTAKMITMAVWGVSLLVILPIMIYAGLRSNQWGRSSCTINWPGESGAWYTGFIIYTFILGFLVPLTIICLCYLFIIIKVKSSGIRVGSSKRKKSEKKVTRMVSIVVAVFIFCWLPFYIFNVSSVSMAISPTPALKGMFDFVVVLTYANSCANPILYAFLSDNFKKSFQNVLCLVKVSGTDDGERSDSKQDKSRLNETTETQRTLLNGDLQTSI
- assayInfo: PathHunter CHO-K1 SST2 internalization assay
- Assay type: cell-based
- protocolConditions: PathHunter CHO-K1 SST2, 90 min; read-out: Internalization EC50
- Procedure: SMDCs of the present invention were assessed in vitro using the human PathHunter CHO-K1 SST2 β-arrestin2 and PathHunter CHO-K1 SST2 Internalization Assays from DiscoverX. The CHO-K cells were seeded in 20 μLs of cell culture medium in a white-walled 384 well tissue culture-compatible plate at a density of 2500 cells/well. […] Luminescence was measured using a Tecan plate reader. […]
// EC50 lookup, one value per entry
Give the quantity in nM, number only.

Recorded EC50, per entry:
compound	measuredTarget	result
COc1cc2cc(c1Cl)N(C)C(=O)CC(OC(=O)[C@@H](C)N(C)C(=O)CCSSCCOCCOCCOCCOCCC(=O)NCCNc1ncc(-c3cc(C)cc(F)c3)c(N3CCC(N)CC3)c1-c1nc3ccc(Cl)cc3[nH]1)[C@]1(C)OC1[C@@H](C)C1C[C@@](O)(NC(=O)O1)[C@H](OC)/C=C/C=C(\C)C2 (stereo partly drawn)	SST2 (Homo sapiens)	17.2
CC[C@H](C)[C@@H]([C@@H](CC(=O)N1CCC[C@H]1[C@H](OC)[C@@H](C)C(=O)N[C@H](C)[C@@H](O)c1ccccc1)OC)N(C)C(=O)[C@@H](NC(=O)[C@H](C(C)C)N(C)C(=O)OCc1ccc(NC(=O)[C@H](CCCNC(N)=O)NC(=O)[C@@H](NC(=O)CCOCCOCCOCCOCCC(=O)NCCNc2ncc(-c3cc(C)cc(F)c3)c(N3CCC(N)CC3)c2-c2nc3ccc(Cl)cc3[nH]2)C(C)C)cc1C(N)=O)C(C)C	SST2 (Homo sapiens)	7

API: the following record is the query input.
Input: Name the recorded EC50 for `CC[C@H](C)[C@@H]([C@@H](CC(=O)N1CCC[C@H]1[C@H](OC)[C@@H](C)C(=O)N[C@H](C)[C@@H](O)c1ccccc1)OC)N(C)C(=O)[C@@H](NC(=O)[C@H](C(C)C)N(C)C(=O)OCc1ccc(NC(=O)[C@H](CCCNC(N)=O)NC(=O)[C@@H](NC(=O)[C@H](CCC(=O)O)NC(=O)CCOCCC(=O)NCCNc2ncc(-c3cc(C)cc(F)c3)c(N3CCC(N)CC3)c2-c2nc3ccc(Cl)cc3[nH]2)C(C)C)cc1C(=O)NC)C(C)C` .
Output: 6.3

* * *

- measuredTarget: SST2 (Homo sapiens)
- Construct: host or cells: PathHunter CHO-K1 SST2 cells
- assayInfo: PathHunter CHO-K1 SST2 internalization assay
- Format: cell-based
- protocolConditions: PathHunter CHO-K1 SST2, 90 min; read-out: Internalization EC50
I'd appreciate it if you marked entries Met when EC50 is lower than 5 nM and Not met when it is not.

Input: Lab note: confirm whether the reported EC50 for this compound is below 5 nM, equality not counting. compound: CC[C@H](C)[C@@H]([C@@H](CC(=O)N1CCC[C@H]1[C@H](OC)[C@@H](C)C(=O)N[C@H](C)[C@@H](O)c1ccccc1)OC)N(C)C(=O)[C@@H](NC(=O)[C@H](C(C)C)N(C)C(=O)OCc1ccc(NC(=O)[C@H](CCCNC(N)=O)NC(=O)[C@@H](NC(=O)[C@H](CCC(=O)O)NC(=O)CCOCCC(=O)NCCNc2ncc(-c3cc(C)cc(F)c3)c(N3CCC(N)CC3)c2-c2nc3ccc(Cl)cc3[nH]2)C(C)C)cc1C(=O)NCCN)C(C)C [Compound 49]
Output: Not met

Input: What do you have for CC[C@H](C)[C@@H]([C@@H](CC(=O)N1CCC[C@H]1[C@H](OC)[C@@H](C)C(=O)N[C@H](C)[C@@H](O)c1ccccc1)OC)N(C)C(=O)[C@@H](NC(=O)[C@H](C(C)C)N(C)C(=O)OCc1ccc(NC(=O)[C@H](C)NC(=O)[C@@H](NC(=O)[C@H](CCC(N)=O)NC(=O)CCOCCC(=O)NCCNc2ncc(-c3cc(C)cc(F)c3)c(N3CCC(N)CC3)c2-c2nc3ccc(Cl)cc3[nH]2)C(C)C)cc1C(=O)NCCN)C(C)C [Compound 118] ?
Output: Met

Input: What do you have for CC[C@H](C)[C@@H]([C@@H](CC(=O)N1CCC[C@H]1[C@H](OC)[C@@H](C)C(=O)N[C@H](C)[C@@H](O)c1ccccc1)OC)N(C)C(=O)[C@@H](NC(=O)[C@H](C(C)C)N(C)C(=O)OCc1ccc(NC(=O)[C@H](CCCNC(N)=O)NC(=O)[C@@H](NC(=O)CCCC(=O)N(C)CC(=O)N(C)CC(=O)N(C)CC(=O)N(C)CC(=O)N(C)CC(=O)NCCNc2ncc(-c3cc(C)cc(F)c3)c(N3CCC(N)CC3)c2-c2nc3ccc(Cl)cc3[nH]2)C(C)C)cc1)C(C)C [Compound 97] ?
Output: Met

Input: What do you have for CC[C@H](C)[C@@H]([C@@H](CC(=O)N1CCC[C@H]1[C@H](OC)[C@@H](C)C(=O)N[C@H](C)[C@@H](O)c1ccccc1)OC)N(C)C(=O)[C@@H](NC(=O)[C@H](C(C)C)N(C)C(=O)OCc1ccc(NC(=O)[C@H](CCCNC(N)=O)NC(=O)[C@@H](NC(=O)CCOCCC(=O)NCCNc2ncc(-c3cc(C)cc(F)c3)c(N3CCC(N)CC3)c2-c2nc3ccc(Cl)cc3[nH]2)C(C)C)c(O[C@@H]2O[C@H](C(=O)O)[C@@H](O)[C@H](O)[C@H]2O)c1)C(C)C [Compound 132] ?
Output: Not met
